Biological target: T1, recombinant human activated Factor VII (FVIIa) (human, UniProt P08709 61-212; P08709 213-466, ten glutamate residues of the Gla domain may be gamma-carboxylated)
T1 construct: chains tethered by a disulfide bond; also called Factor VIIa; rFVIIa
T1 sequence 1: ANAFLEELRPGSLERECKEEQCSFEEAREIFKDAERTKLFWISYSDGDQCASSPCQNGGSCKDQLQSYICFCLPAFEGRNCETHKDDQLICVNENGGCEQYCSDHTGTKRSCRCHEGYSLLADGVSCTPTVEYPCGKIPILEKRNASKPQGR
T1 sequence 2: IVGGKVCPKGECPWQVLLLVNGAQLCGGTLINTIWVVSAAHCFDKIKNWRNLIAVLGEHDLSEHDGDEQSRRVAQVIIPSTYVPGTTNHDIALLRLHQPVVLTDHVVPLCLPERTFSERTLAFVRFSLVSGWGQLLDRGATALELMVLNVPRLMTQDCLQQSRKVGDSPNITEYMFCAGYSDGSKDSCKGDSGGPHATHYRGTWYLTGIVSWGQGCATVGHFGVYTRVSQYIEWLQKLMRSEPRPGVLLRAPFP
Assay: BLI (Fortebio)
Readout Kind: Kd (nM)
Write down the numeric answer in nM and omit the unit.

Known Kd results, listed for orientation:
Retrieve Kd measured for VH SEQ ID NO 594 / VL SEQ ID NO 494 (antibody, IgG4, V domains shown, humanized 11F2; IgG4 S228P/kappa) VH: QVQLQESGPGLVKPSDTLSLTCAVSGYSISSDSAWSWIRQPPGKKLEWIGYIQYSGSTNYNPSLKSRVTMSVDTSKNQFSLKLSSVTALDTAVYYCARSVNYYGNSFAVGPWGQGTLVTVSS VL: EIVLTQSPATLSLSPGERATLSCRASQGVSDYLHWYQQKPGQAPRLLIKYASQPATGIPARFSGSGSGTDFTLTISSLEPEDVAVYYCQNGHSFPLTFGQGTKLEIK and print it.
43

Retrieve Kd measured for VH SEQ ID NO 642 / VL SEQ ID NO 334 (antibody, IgG4, V domains shown, humanized 11F2; IgG4 S228P/kappa) VH: QVQLQESGPGLVKPSQTLSLTCTVSGYSISSDSAWSWIRQPPGKGLEWIGYIYYSGSTNYNPSLKSRVTISVDTSKNQFSLKLSSVTAADTAVYYCARSVNYYGNSFAVGYWGQGTSVTVSS VL: EIVLTQSPATLSLSPGERATLSCRASQGISDYLHWYQQKPGQAPRLLIKYASQPATGIPARFSGSGSGTDFTLTISSLEPEDFAVYYCQNGHSFPLTFGQGTKLEIK and print it.
1000

Retrieve Kd measured for VH SEQ ID NO 650 / VL SEQ ID NO 374 (antibody, IgG4, V domains shown, humanized 11F2; IgG4 S228P/kappa) VH: QVQLQESGPGLVKPSQTLSLTCTVSGYSISSDSAWSWIRQPPGKKLEWIGYIQYSGSTNYNPSLKSRVTISRDTSKNQFSLKLSSVTAADTAVYYCARSVNYYGNSFAVGPWGQGTLVTVSS VL: EIVLTQSPATLSLSPGERATLSCRASQGLSDYLAWYQQKPGQAPRLLIKYTSQPATGIPARFSGSGSGTDFTLTISSLEPEDFAVYYCQNGHSFPLTFGQGTKLEIK and print it.
46

Retrieve Kd measured for VH SEQ ID NO 618 / VL SEQ ID NO 390 (antibody, IgG4, V domains shown, humanized 11F2; IgG4 S228P/kappa) VH: QVQLQESGPGLVKPSQTLSLTCTVSGYSISSDSAWSWIRQFPGKGLEWIGYIQYSGSTNYNPSLKSRVTISRDTSKNQFSLKLSSVTAADTAVYYCARSVNYYGNSFAVGPWGQGTLVTVSS VL: EIVLTQSPATLSLSPGERATLSCRASQGVSDYLAWYQQKPGEAPRLLIKYASQPATGIPARFSGSGSGTDFTLTISSLEPEDFAVYYCQNGHSFPLTFGQGTKLEIK and print it.
33

Alright, here's another binder for you.
Retrieve Kd measured for VH SEQ ID NO 522 / VL SEQ ID NO 334 (antibody, IgG4, V domains shown, humanized 11F2; IgG4 S228P/kappa) VH: QVQLQESGPGLVEPSQTLSLTCTVSGYSISSDSAWSWIRQPPGKGLEWIGYIQYSGSTNYNPSLKSRVTISRDTSKNQFSLKLSSVTAADTAVYYCARSVNYYGNSFAVGPWGQGTLVTVSS VL: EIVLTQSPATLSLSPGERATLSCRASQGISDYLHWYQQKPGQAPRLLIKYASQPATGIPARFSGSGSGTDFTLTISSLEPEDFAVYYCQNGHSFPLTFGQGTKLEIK and print it.
1.2
